# System: BALB/cJ mice
# Assay Name: Delivery of hEPO mRNA by intramuscular administration of LNPs; serum hEPO by ELISA
# Assay type: in vivo, Mouse
# Condition Info: Table 4, further lipids; mouse serum 6 hours post IM injection of hEPO mRNA LNP as in example 3
Hi there, I'd appreciate the recorded hEPO 6 Hr (ng/ml) Mean for every entry that follows.
Give bare numbers, in ng/mL.

Hi there! I need hEPO 6 Hr (ng/ml) Mean for each item below, if you can.
1. CCCCCCCCCCC(O)CN(CCCSS[C@H]1CO[C@H]2[C@@H]1OC[C@@H]2SSCCCN(CC(O)CCCCCCCCCC)CC(O)CCCCCCCCCC)CC(O)CCCCCCCCCC (stereo partly shown)
2. CCCCCC/C=C\COC(=O)CCCCCC(O)CN(CCCC(=O)N[C@H]1CO[C@H]2[C@@H]1OC[C@@H]2NC(=O)CCCN(CC(O)CCCCCC(=O)OC/C=C\CCCCCC)CC(O)CCCCCC(=O)OC/C=C\CCCCCC)CC(O)CCCCCC(=O)OC/C=C\CCCCCC (stereo partly shown)
3. CCCCCCCCCCC(O)CCN(CCCNC(=O)O[C@@H]1CO[C@H]2[C@@H]1OC[C@H]2OC(=O)NCCCN(CC(O)CCCCCCCCCC)CC(O)CCCCCCCCCC)C(O)CCCCCCCCCC (stereo partly shown)
4. CCCCCCCCCCCOC(=O)CCCCCN(CCCCCCCC(=O)OC(CCCCCCCC)CCCCCCCC)CCCC(=O)N[C@H]1CO[C@H]2[C@@H]1OC[C@@H]2NC(=O)CCCN(CCCCCCCC(=O)OC(CCCCCCCC)CCCCCCCC)CCCCCC(=O)OCCCCCCCCCCC

2.2
2.1
81.3
6.2

----------
# System: BALB/cJ mice
# Assay Name: Delivery of hEPO mRNA by intramuscular administration of LNPs; serum hEPO by ELISA
# Type: in vivo, Mouse
# Condition Info: Table 4, further lipids; mouse serum 6 hours post IM injection of hEPO mRNA LNP as in example 3
# Experimental: In summary, lipid screening studies were conducted with female BALB/cJ mice 6-8 weeks of age. Mice were dosed with 0.1 μg in 30 μL of LNPs by a single intramuscular (IM) injection into the gastrocnemius leg muscle. Blood samples were taken 6 and 24 hours post injection and hEPO levels were measured in the blood serum of the mice using an ELISA assay according to the manufacture's protocol. […]
Measured Property: hEPO 6 Hr (ng/ml) Mean (ng/mL)
Answers are plain numbers, in ng/mL.

Examples with answers:
compound="CCCCCCCCCCCCC(O)CN(CCCC(=O)S[C@H]1CO[C@H]2[C@@H]1OC[C@@H]2SC(=O)CCCN(CC(O)CCCCCCCCCCCC)CC(O)CCCCCCCCCCCC)CC(O)CCCCCCCCCCCC (stereo partly shown) [Compound 82]" readout_value=3.1
compound="CCCCCCCCCCCCC(O)CN(CCCOC(=O)N[C@H]1CO[C@H]2[C@@H]1OC[C@@H]2NC(=O)OCCCN(CC(O)CCCCCCCCCCCC)CC(O)CCCCCCCCCCCC)CC(O)CCCCCCCCCCCC (stereo partly shown) [Compound 53]" readout_value=72.0
compound="CCCCCCCCCCC(O)CN(CCCC(=O)S[C@H]1CO[C@H]2[C@@H]1OC[C@@H]2SC(=O)CCCN(CC(O)CCCCCCCCCC)CC(O)CCCCCCCCCC)CC(O)CCCCCCCCCC (stereo partly shown) [Compound 44]" readout_value=2.0
compound="CCCCCCCCCCC(O)CN(CCCCC(=O)O[C@@H]1CO[C@H]2[C@@H]1OC[C@H]2OC(=O)CCCN(CC(O)CCCCCCCCCC)CC(O)CCCCCCCCCC)CC(O)CCCCCCCCCC (stereo partly shown) [Compound 56]" readout_value=51.9

Hi there! I need hEPO 6 Hr (ng/ml) Mean for each item below, if you can.
1. CCCCCCCCCCC(O)CN(CCCCC(=O)N[C@H]1CO[C@H]2[C@@H]1OC[C@@H]2NC(=O)CCCCN(CC(O)CCCCCCCCCC)CC(O)CCCCCCCCCC)CC(O)CCCCCCCCCC (stereo partly shown) [Compound 71]
2. CCCCCCCCCCC(O)CN(CCCCC(=O)S[C@H]1CO[C@H]2[C@@H]1OC[C@@H]2SC(=O)CCCCN(CC(O)CCCCCCCCCC)CC(O)CCCCCCCCCC)CC(O)CCCCCCCCCC (stereo partly shown) [Compound 80]
3. CCCCCCCCCCCOC(=O)CCCC(O)CN(CCCC(=O)N[C@H]1CO[C@H]2[C@@H]1OC[C@@H]2NC(=O)CCCN(CC(O)CCCCCC(=O)OC(CCCCCCCC)CCCCCCCC)CC(O)CCCC(=O)OCCCCCCCCCCC)CC(O)CCCCCC(=O)OC(CCCCCCCC)CCCCCCCC (stereo partly shown) [Compound 73]

1. 72.0
2. 0.9
3. 23.4
